target: Grb2 SH2 (UniProt P62993); assay: SH2 binding enrichment of the phosphorylated peptide, bacterial display (enrichment ratio); higher = better substrate or ligand; peptides without Tyr show the background;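 also: peptide library displayed on the E. coli surface as eCPX fusions, selected cells deep-sequenced, score is each peptide's frequency after selection divided by its frequency in the input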
Sequence (P62993 whole entry, looked up, the tested form may be a part): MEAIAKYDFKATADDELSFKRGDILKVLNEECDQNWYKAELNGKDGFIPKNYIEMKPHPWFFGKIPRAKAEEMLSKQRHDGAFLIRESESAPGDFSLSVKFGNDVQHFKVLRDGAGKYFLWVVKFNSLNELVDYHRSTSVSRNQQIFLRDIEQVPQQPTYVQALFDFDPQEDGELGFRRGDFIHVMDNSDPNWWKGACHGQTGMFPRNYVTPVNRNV
Note to self: values exactly at 0.9 are y. So SH2 binding enrichment at or above 0.9 is y, below is n.

Query: Hi, just wondering whether KVALLYKPFFF [POLE_Y100_P99L_YF] shows SH2 binding enrichment of 0.9 or higher.
Response: y

Query: Hi, just wondering whether LKALKYKSMKI [ITGA11_Y1098] shows SH2 binding enrichment of 0.9 or higher.
Response: y

Query: Hi, just wondering whether MSSLPYMKVIF [SLC4A11_Y853_M856V] shows SH2 binding enrichment of 0.9 or higher.
Response: y

Query: Hi, just wondering whether LNTFHHAGVSA [POLR2A_Y1109_Y1109H] shows SH2 binding enrichment of 0.9 or higher.
Response: y

Query: Hi, just wondering whether KLLRLYAVVTR [LYN_Y306_V303L] shows SH2 binding enrichment of 0.9 or higher.
Response: y

Query: Hi, just wondering whether SQPASYQRRFL [PPIG_Y320_L324F] shows SH2 binding enrichment of 0.9 or higher.
Response: n

Query: Hi, just wondering whether AKKVFYVIETR [SHH_Y253] shows SH2 binding enrichment of 0.9 or higher.
Response: y

Query: Hi, just wondering whether LLNAIYLSAKR [SERPING1_Y294_W299R] shows SH2 binding enrichment of 0.9 or higher.
Response: y

Query: Hi, just wondering whether WVFNHYRWFIW [BRCA2_Y2624_I2627F_YF] shows SH2 binding enrichment of 0.9 or higher.
Response: y

Query: Hi, just wondering whether QLDQHYLLVPE [DDX49_Y223_R222H] shows SH2 binding enrichment of 0.9 or higher.
Response: n

Query: Hi, just wondering whether QTWKTYVRQQQ [SFI1_Y164] shows SH2 binding enrichment of 0.9 or higher.
Response: y

Query: Hi, just wondering whether KFVKMCDNHQL [MYO9A_Y203_Y203C_YF] shows SH2 binding enrichment of 0.9 or higher.
Response: n

Query: Hi, just wondering whether RPSELYYSKIS [SMG1_Y2253_G2258S] shows SH2 binding enrichment of 0.9 or higher.
Response: y

Query: Hi, just wondering whether YGSSSSGGAGG [RPA2_Y14_Y14S] shows SH2 binding enrichment of 0.9 or higher.
Response: n

Query: Hi, just wondering whether SSTAMYSAPGR [PSMB1_Y8] shows SH2 binding enrichment of 0.9 or higher.
Response: n

Query: Hi, just wondering whether DPASAYADEVK [ETNPPL_Y189_S185P] shows SH2 binding enrichment of 0.9 or higher.
Response: y

Query: Hi, just wondering whether PVKDGYQMAQP [CSF1R_Y873_L868P] shows SH2 binding enrichment of 0.9 or higher.
Response: n

Query: Hi, just wondering whether EMTRNYIIFIE [BCO2_Y294_G289E] shows SH2 binding enrichment of 0.9 or higher.
Response: y

Query: Hi, just wondering whether TTGGFYSYGGG [KRT24_Y120_A115T] shows SH2 binding enrichment of 0.9 or higher.
Response: n

Query: Hi, just wondering whether NMHSTYAKLAA [SEC22B_Y193] shows SH2 binding enrichment of 0.9 or higher.
Response: n

Query: Hi, just wondering whether NFATLYLKIFH [PDE6B_Y219_YF] shows SH2 binding enrichment of 0.9 or higher.
Response: y

Query: Hi, just wondering whether FETSHYPASPD [CTNND2_Y1217_YF] shows SH2 binding enrichment of 0.9 or higher.
Response: y

Query: Hi, just wondering whether MFNPCYGLFEY [NEDD4L_Y680_Y679C] shows SH2 binding enrichment of 0.9 or higher.
Response: n

Query: Hi, just wondering whether RPYVYYYSYLL [PTEN_Y177_R173P] shows SH2 binding enrichment of 0.9 or higher.
Response: n
